Molecular target: PGD2 receptor (Homo sapiens)
Construct: A suspension adjusted to contain the platelets at a final concentration of 5×10^8/ml was warmed at 37° C; endogenous in cells; host or cells: washed human platelets from a healthy volunteer
Sequence (Q13258 whole entry): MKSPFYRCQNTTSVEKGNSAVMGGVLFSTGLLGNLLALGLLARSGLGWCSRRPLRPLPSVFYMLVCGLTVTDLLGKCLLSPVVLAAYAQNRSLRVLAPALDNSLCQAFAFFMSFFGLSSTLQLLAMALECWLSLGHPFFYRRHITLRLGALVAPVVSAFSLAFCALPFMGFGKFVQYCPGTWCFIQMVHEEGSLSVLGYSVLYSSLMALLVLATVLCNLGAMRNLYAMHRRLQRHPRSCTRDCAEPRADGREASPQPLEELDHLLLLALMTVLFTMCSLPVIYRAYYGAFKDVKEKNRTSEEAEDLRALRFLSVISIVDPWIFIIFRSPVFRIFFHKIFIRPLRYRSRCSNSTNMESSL
Assay: Antagonistic activity against PGD2 receptor using human platelet (inhibition of PGD2-induced cAMP increase)
Assay type: cell-based
Conditions: human platelet; 0.1 μM PGD2; read-out: Inhibitory activity for the increase of cAMP caused by PGD2 in human platelet IC50
Exercise: state measured pIC50 for each of the compounds provided.
Please express pIC50 as -log10 of the molar concentration.

Recorded pIC50 (compound O=C(O)CCCCCC[C@H]1[C@@H]2CC[C@@H](C2)[C@@H]1NC(=O)c1ccc(Sc2cccs2)s1 [I-7A-59a] ): 7.92

Quick note, pIC50 for Cc1cc(S(=O)(=O)c2ccc(C(=O)N[C@@H]3[C@@H](C/C=C\CCCC(=O)O)C[C@H]4C[C@@H]3C4(C)C)s2)cs1 [II-101] landed at 7.35

Entry CC1(C)[C@H]2C[C@H](C/C=C\CCCC(=O)O)[C@@H](NC(=O)c3ccc(Cc4cccc(-c5ccccc5)c4)s3)[C@@H]1C2 [II-138] ; pIC50 = 7.60

Lab note: measured pIC50 of Cc1cccc(SCc2ccc(C(=O)N[C@H]3[C@H]4CC[C@H](C4)[C@@H]3C/C=C\CCCC(=O)O)s2)c1 [I-132] was 7.37

Lab note: measured pIC50 of O=C(O)CCC/C=C\C[C@H]1[C@@H]2CC[C@@H](C2)[C@@H]1NC(=O)c1ccc(SCc2cccs2)cc1 [I-66] was 7.36

Form field pIC50, entry O=C(O)CCC/C=C\C[C@H]1[C@@H]2CC[C@@H](C2)[C@@H]1NC(=O)c1ccc(Cc2cc3ccccc3o2)s1 [I-136] : 7.82

// pIC50 lookup, compound = O=C(O)CCCC[C@H]1[C@@H]2CC[C@@H](C2)[C@@H]1NC(=O)c1ccc(Sc2cccs2)s1 [I-5A-59a] , result: 7.10

The origin of these recorded values is patent US7084136B2.
